TGI overview
# Tested on: SF-268 CNS
# experiment_summary: NCI tumour cell line growth inhibition, 48 h
Provide the reading as a plain figure in µM.

As a guide, the following entries are already answered.
compound	observed_property	reading
COc1ccc(C(=O)c2ccc([As]=O)cc2)cc1 (centres undefined)	TGI	0.136
COC(=O)[C@H](Cc1ccccc1)NC(=O)CCCCCCC(=O)NO	TGI	72.1
Cc1c2c(OCC3CCCCO3)nn(C)c(=O)c2c(C)n1-c1ccccc1 (centres undefined)	TGI	30.7

Q. Bench note: what TGI did `CCOC(=O)c1nc2cc(C(F)(F)F)ccc2nc1Nc1ccc(C(=O)NC(C(=O)OCC)C(=O)OCC)cc1` show?
A. 53.6

Q. Bench note: what TGI did C=C1C(=O)O[C@H]2[C@H]1CC/C(COC(=O)NCC(C)c1ccc(CC(C)C)cc1)=C\CC[C@@]1(C)O[C@@H]21 (some centres undefined) show?
A. 6.59

----------
# Tested on: A549 NSCLC
# experiment_summary: NCI tumour cell line growth inhibition, 48 h; in the data active means GI50 below about 0.43 µM; inactive means the rest
Permitted responses: 1 (active), -1 (inactive)

Sample answers from the record:
molecule	group
C[C@H]1CCCC(O)C(O)[C@@H]2C[C@H](O[Si](C)(C)C(C)(C)C)C[C@H]2[C@H](O[Si](C)(C)C(C)(C)C)C(O)C(O)C(=O)O1 (stereo partly drawn)	-1
O=S(=O)(CCCl)c1ccc(Cl)cc1	-1
O=C(Nc1ccc(Cl)c(Cl)c1)NS(=O)(=O)c1cnccc1Oc1ccc(F)cc1	-1
O=[N+]([O-])c1ccc(Sc2c3ccccc3nc3cc(Cl)ccc23)cc1	-1
CN1/C(=C\C=C\C2=[N+](C)c3ccccc3C2(C)C)C(C)(C)c2ccccc21	1

Q. Hi, do you know how `O=S(=O)(NCCCNc1nccc(-c2c(-c3ccc(F)cc3)nc3sccn23)n1)c1ccc2ccccc2c1` came out in this test?
A. -1

Q. Hi, do you know how `CCCCn1c(-c2ccc(C(=O)O/N=C(\N)c3ccc4c(c3)OCO4)cc2)nc(-c2ccccc2)c1-c1ccccc1` came out in this test?
A. -1

Q. Hi, do you know how `CN(C)C(=O)O[C@H]1CN[C@H](C#Cc2cc3ncnc(Nc4ccc(OCc5cccc(F)c5)c(Cl)c4)c3s2)C1` came out in this test?
A. -1

----------
# Test system: UACC-62 melanoma
# experiment_summary: NCI tumour cell line growth inhibition, 48 h
observed_property: TGI

As a guide, the following entries are already answered.
compound	TGI
O=[N+]([O-])c1ccc2c(c1)C1=NN(c3ccccc3)C(c3ccccc3Br)C1CCC2 (centres undefined)	34.4 µM
O=C(c1ccncc1)C1C(=O)c2ccccc2C1C1(O)c2ccccc2CC1C(O)c1ccncc1 (centres undefined)	48.7 µM
C=C1C[C@@H]2CC[C@@]34C[C@H]5O[C@H]6[C@@H](O3)[C@H]3O[C@H](CC[C@@H]3O[C@H]6[C@@H]5O4)CC(=O)C[C@@H]3[C@@H](OC)[C@@H](C[C@H](O)CN)O[C@H]3C[C@H]3O[C@@H](CC[C@@H]1O2)C[C@@H](C)C3=C	> 100 µM
Cc1ccccc1C(=O)N1CCN(C(=O)c2ccccc2C)CC1	> 100 µM
CCCCn1c(-c2ccc(C(=O)O/N=C(\N)c3ccc4c(c3)OCO4)cc2)nc(-c2ccccc2)c1-c1ccccc1	8.93 µM
O=C(Nc1noc(-c2ccccc2)n1)c1ccccc1CNc1noc(-c2ccccc2)n1	> 100 µM
O=c1cc(-c2ccccc2)oc2c(-c3cc(Cl)cc4c(=O)cc(-c5ccccc5)oc34)cc(Cl)cc12	48.4 µM
CSc1n[nH]c(N)c1C(=O)Nc1ccccc1	> 100 µM

Q. Bench note: what TGI did COc1ccc(N(C(=O)Nc2ccc(Cl)c(Cl)c2)C2c3cccn3C(=O)N2c2ccc(Cl)c(Cl)c2)cc1 (centres undefined) show?
A. > 100 µM

Q. Bench note: what TGI did `CC(C)CCC1(CCN)C(=O)NC(=O)NC1=O` show?
A. > 100 µM

Q. Bench note: what TGI did `CCCCN(CCCC)C(=O)/C(CC(=O)c1cccc2ccccc12)=N\NC(=O)c1cc2ccccc2cc1O` show?
A. 23.3 µM
